Target: Troponin I, cardiac muscle (Homo sapiens) + Troponin T, cardiac muscle (Homo sapiens) + Troponin C, slow skeletal and cardiac muscles (Homo sapiens) (UniProt P19429+P45379+P63316)
Assay: cardiac RTF calcium sensitivity activators, confirmation, biochemical, IANBD-TnC fluorescence, triplicate (AID 504383);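 also: 0% = DMSO at 0.472 mM calcium and 100% = DMSO at 2.9 mM calcium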
Conditions: IANBD-labeled cardiac RTF, Ca2+ sensitivity fluorescence; at 7.2 µM; scaled from EC20 to saturating calcium; tested at EC20 calcium, 0.472 mM
Screen size: about 2,500 compounds; about 1,200 (48%) were called active.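 The calls were made as follows: active = mean activation above the low control average plus 3 SD, as set in the primary screen (cut at about 12% in these data); inactive = the rest.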 The set was probably picked from earlier hits. Some of the results follow.
Give one outcome, nothing more. List: true (1) = active, false (0) = inactive

Please share the test call associated with COc1ccc(C2C(C(C)=O)=C(C)N=c3s/c(=C\c4cc(C)n(C)c4C)c(=O)n32)c(OC)c1 (stereo not given) .
true (1)

Please share the test call associated with CN1C(=O)c2cccc3c(N(C)C)ccc(c23)C1=O .
true (1)

Please share the test call associated with COc1ccc(-c2nnc(SCC(=O)c3ccc[nH]3)n2-c2ccccc2)cc1 .
true (1)

Please share the test call associated with CN1C(=O)c2cccc3c(N)ccc(c23)C1=O .
false (0)

Please share the test call associated with Cc1cccc(N2C(=O)c3cccc4c(N(C)CCO)ccc(c34)C2=O)c1 .
false (0)

###

Target: Troponin I, cardiac muscle (Homo sapiens) + Troponin T, cardiac muscle (Homo sapiens) + Troponin C, slow skeletal and cardiac muscles (Homo sapiens) (UniProt P19429+P45379+P63316)
Assay: cardiac RTF calcium sensitivity activators, confirmation, biochemical, IANBD-TnC fluorescence, triplicate (AID 504383);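 also: 0% = DMSO at 0.472 mM calcium and 100% = DMSO at 2.9 mM calcium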
Details: IANBD-labeled cardiac RTF, Ca2+ sensitivity fluorescence; at 7.2 µM; scaled from EC20 to saturating calcium; tested at EC20 calcium, 0.472 mM
The campaign covered roughly 2,500 compounds. About 1,200 (48%) were called active.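 How the source made its calls: active means mean activation above the low control average plus 3 SD, as set in the primary screen (cut at about 12% in these data); inactive means the rest.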 So high a share suggests a set chosen from earlier hits. This is one part of the list.
Give one outcome, nothing more. List: class 1 (active), class 0 (inactive)

Please share the test call associated with O=C1/C(=C/c2ccc(N3CCCC3)cc2)NC(=S)N1C1CC1 .
class 0

Please share the test call associated with COc1ccc(-c2csc(N3CCN(c4cc5c(cc4Cl)nc(-c4ccncc4)n5CCOCCO)CC3)n2)cc1 .
class 0

Please share the test call associated with Cc1cc(N2CCN(c3nc(-c4ccc([N+](=O)[O-])cc4)cs3)CC2)c2ccccc2n1 .
class 1

Please share the test call associated with CNc1c2cccc(C)c2nc2c(C(=O)NCCN(C)C)cccc12 .
class 0

Please share the test call associated with O=C(O)CCC(=O)Nc1cc(C(F)(F)F)cc(C(F)(F)F)c1 .
class 1

###

Target: Troponin I, cardiac muscle (Homo sapiens) + Troponin T, cardiac muscle (Homo sapiens) + Troponin C, slow skeletal and cardiac muscles (Homo sapiens) (UniProt P19429+P45379+P63316)
Experiment: cardiac RTF calcium sensitivity activators, confirmation, biochemical, IANBD-TnC fluorescence, triplicate (AID 504383);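 also: 0% = DMSO at 0.472 mM calcium and 100% = DMSO at 2.9 mM calcium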
Conditions: IANBD-labeled cardiac RTF, Ca2+ sensitivity fluorescence; at 7.2 µM; scaled from EC20 to saturating calcium; tested at EC20 calcium, 0.472 mM
Hit rate of the full screen: of about 2,500 compounds, about 1,200 (48%) were called active.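 Rule for the calls: active = mean activation above the low control average plus 3 SD, as set in the primary screen (cut at about 12% in these data); inactive = the rest.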 So high a share suggests a set chosen from earlier hits. The list shows a part of the results.
Give one outcome, nothing more. List: true = active, false = inactive

Please share the test call associated with COc1ccc(CN2CNc3c(c(=O)n(C)c(=O)n3C)C2)cc1 .
true

Please share the test call associated with Nc1nc2ccccc2n1CCOc1ccc(Br)cc1 .
true

Please share the test call associated with Cc1ccc(CNC(=O)c2cc(-c3ccccc3)nn2Cc2cc(C)no2)cc1 .
false

Please share the test call associated with C=CCN1C(=O)c2ccccc2NC1c1cc(Br)cs1 (configuration not stated) .
true

Please share the test call associated with O=c1nc2c(O)cccn2c2c1c(=O)[nH]c1ccccc12 .
true

Please share the test call associated with CCN1C(=O)[C@@H]2Cc3c([nH]c4ccccc34)C(c3ccc(OC)cc3)N2C1=S (some centres not stated) .
false

Please share the test call associated with C/C(=N/NS(=O)(=O)c1ccccc1)c1ccc(NC(=O)C2CC2)cc1 .
true

Please share the test call associated with CCOC(=O)c1cc2c(=O)n3ccccc3nc2n(CCOC)c1=NC(=O)c1c(-c2c(F)cccc2Cl)noc1C .
false

Please share the test call associated with Cc1oc2c(cc(NS(=O)(=O)c3ccc(C(C)C)cc3)c3ccccc32)c1C(=O)O .
false

Please share the test call associated with COc1cc(/C=C2\CCC(C)C3=C(c4cc(OC)c(OC)c(OC)c4)C(C#N)=C(N)OC32)cc(OC)c1OC (configuration not stated) .
true

Please share the test call associated with Cc1ccc(N=Cc2sc(O)c3ccccc23)c(C)c1 .
false

Please share the test call associated with O=C(Cc1ccccc1)Nn1c(O)c(/C=C2\C=Nc3ccccc32)sc1=S .
true

Please share the test call associated with Cc1ccc(CNC(=O)CCn2cc(-c3ccc(C)cc3)nc2-c2ccncc2)cc1 .
true

Please share the test call associated with Cc1nc(NC(=O)C(Cl)Cl)sc1C(=O)N(C)C .
false

Please share the test call associated with Cc1ccc(S(=O)(=O)c2cc(C#N)c(=O)[nH]c2N)cc1 .
true

Please share the test call associated with C/C(=N/NC(=O)Nc1ccccc1)c1ccc(C)cc1 .
false

Please share the test call associated with O=C(NN1C(=O)c2ccccc2NC1c1ccco1)c1ccccc1 (configuration not stated) .
false

Please share the test call associated with CC(C)c1ccc(C2c3[nH]c4ccccc4c3C[C@H]3C(=O)N(c4ccccc4C(=O)N4CCC(C(=O)O)CC4)C(=O)N23)cc1 (some centres not stated) .
true

Please share the test call associated with NC(=S)Nc1c(Cl)cccc1Cl .
false

Please share the test call associated with Cc1ccc(-c2nc3sc(C#N)c(N)n3c(=O)c2C#N)cc1 .
false

Please share the test call associated with OCCN=C1CCCc2c1[nH]c1ccc(Cl)cc21 .
false

Please share the test call associated with Cc1ccc(-c2ccc(OC(=O)c3ccc(=O)[nH]c3)c(C)c2)cc1 .
true
